Data credit: patent US20230233569A1

Property: IC50; scope: individual compounds
biological target: NRAS G12C (Homo sapiens, UniProt P01111+P62937, G12C); experiment: Ras-Raf disruption / FRET / MOA assay (BRAF RBD); assay type: biochemical; conditions: NRAS G12C; read-out: NRAS G12C FRET data IC50
Sequence (P01111 whole entry G12C, one chain of several): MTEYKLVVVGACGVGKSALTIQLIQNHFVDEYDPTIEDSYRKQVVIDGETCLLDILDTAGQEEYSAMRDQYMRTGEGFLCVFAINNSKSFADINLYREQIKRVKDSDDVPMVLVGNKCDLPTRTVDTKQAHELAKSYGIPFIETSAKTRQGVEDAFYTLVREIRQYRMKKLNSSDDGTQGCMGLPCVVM

// solved cases for IC50 follow
>  <compound>
CCn1c(-c2cccnc2[C@H](C)OC)c2c3cc(ccc31)-c1cc(O)cc(c1)C[C@H](NC(=O)[C@H](C(C)C)N(C)C(=O)C1CN(S(=O)(=O)[C@H]3CN3C)C1)C(=O)N1CCC[C@H](N1)C(=O)OCC(C)(C)C2 (single isomer, unassigned) [Example 117]

>  <IC50>
100 to 1000 nM

$$$$
>  <compound>
CCn1c(-c2cccnc2[C@H](C)OC)c2c3cc(ccc31)-c1cc(O)cc(c1)C[C@H](NC(=O)[C@H](C(C)C)N(C)C(=O)[C@H]1CCN(S(=O)(=O)[C@H]3CN3C)C1)C(=O)N1CCC[C@H](N1)C(=O)OCC(C)(C)C2 (single isomer, unassigned) [Example 57]

>  <IC50>
100 to 1000 nM

$$$$
>  <compound>
CCn1c(-c2cnccc2COC)c2c3cc(ccc31)-c1cccc(c1)C[C@H](NC(=O)[C@H](C(C)C)N(C)C(=O)CCN=C=NCc1c(OC)cccc1OC)C(=O)N1CCC[C@H](N1)C(=O)OCC(C)(C)C2 [62 A and B]

>  <IC50>
1000 to 10000 nM

$$$$

From here, focus on the item given below.
Q: Entry CCn1c(-c2cccnc2[C@H](C)OC)c2c3cc(ccc31)-c1cc(O)cc(c1)C[C@H](NC(=O)[C@H](C(C)C)N1CC[C@@]3(CCN(C(=O)[C@H]4CN4)C3)C1=O)C(=O)N1CCC[C@H](N1)C(=O)OCC(C)(C)C2 [Example 149] : reported IC50 = ?
Ans: < 10 nM

* * *

Property: IC50; scope: individual compounds
target: KRAS G12V (Homo sapiens, UniProt P01116+P62937, G12V); assay: Disruption of BRAF RBD interaction with Ras (FRET / MOA assay, with Cyclophilin A); type: biochemical; details: KRAS G12V; read-out: KRAS G12V FRET data IC50
Sequence (P01116 1-169 isoform P01116-2 G12V limits assumed): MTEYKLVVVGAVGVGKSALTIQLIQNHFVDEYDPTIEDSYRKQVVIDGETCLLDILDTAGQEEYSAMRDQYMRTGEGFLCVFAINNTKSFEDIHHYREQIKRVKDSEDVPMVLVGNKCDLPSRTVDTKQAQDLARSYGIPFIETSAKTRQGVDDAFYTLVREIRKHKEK
Sequence (P62937 whole entry): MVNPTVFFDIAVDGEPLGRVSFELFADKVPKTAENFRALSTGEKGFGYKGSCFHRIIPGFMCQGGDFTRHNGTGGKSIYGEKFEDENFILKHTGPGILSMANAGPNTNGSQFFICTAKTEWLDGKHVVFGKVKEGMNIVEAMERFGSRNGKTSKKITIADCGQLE

// solved cases for IC50 follow
>  <compound>
CCn1c(-c2cccnc2[C@H](C)OC)c2c3cc(ccc31)-c1csc(n1)C[C@H](NC(=O)[C@H](C(C)C)N(C)C(=O)N1CCN(C(=O)C3(N(C)C)CC3)CC1)C(=O)N1CCC[C@H](N1)C(=O)OCC(C)(C)C2 (atropisomer, axis not shown) [Example A443]

>  <IC50>
100 to 1000 nM

$$$$
>  <compound>
CCn1c(-c2cccnc2[C@H](C)OC)c2c3cc(ccc31)-c1csc(n1)C[C@H](NC(=O)[C@H](C1CCCC1)N(C)C(C)=O)C(=O)N1CCC[C@H](N1)C(=O)OCC(C)(C)C2 [Example A141]

>  <IC50>
1000 to 10000 nM

$$$$
>  <compound>
CCn1c(-c2cccnc2[C@H](C)OC)c2c3cc(ccc31)-c1cccc(c1)C[C@H](NC(=O)[C@H](C(C)C)N(C)C(=O)[C@H]1CCN(C(=O)CN(C)C)C1)C(=O)N1CCC[C@H](N1)C(=O)OCC(C)(C)C2 [Example A96]

>  <IC50>
1000 to 10000 nM

$$$$
>  <compound>
CCn1c(-c2cccnc2[C@H](C)OC)c2c3cc(ccc31)-c1csc(n1)C[C@H](NC(=O)[C@H](C(C)C)N(C)C(=O)N(C)[C@@H]1CCCN(C)C1)C(=O)N1CCC[C@H](N1)C(=O)OCC(C)(C)C2 [Example A587]

>  <IC50>
1000 to 10000 nM

$$$$
>  <compound>
CCn1c(-c2cnccc2COC)c2c3cc(ccc31)-c1cc(O)cc(c1)C[C@H](NC(=O)[C@H](C(C)C)N(C)C(=O)[C@@H]1CCCO1)C(=O)N1CCC[C@H](N1)C(=O)OCC(C)(C)C2 [Example A91]

>  <IC50>
100 to 1000 nM

$$$$

Q: Entry CCn1c(-c2cccnc2[C@H](C)OC)c2c3cc(ccc31)-c1cc(O)cc(c1)C[C@H](NC(=O)[C@H](C(C)C)N(C)C(=O)C1(O)CC1)C(=O)N1CCC[C@H](N1)C(=O)OCC(C)(C)C2 (atropisomer, axis not shown) [Example A132] : reported IC50 = ?
Ans: 100 to 1000 nM

Q: Entry CCn1c(-c2cccnc2[C@H](C)OC)c2c3cc(ccc31)-c1csc(n1)C[C@H](NC(=O)[C@H](C(C)C)N(C)C(=O)N1CCC3(CC1)CN(C)CCO3)C(=O)N1CCC[C@H](N1)C(=O)OCC(C)(C)C2 [Example A433] : reported IC50 = ?
Ans: 100 to 1000 nM

Q: Entry CCn1c(-c2cccnc2[C@H](C)OC)c2c3cc(ccc31)-c1csc(n1)C[C@H](NC(=O)[C@H](C(C)C)N(C)C(=O)N(C)C1CN(C(=O)/C=C/C(C)(C)O)C1)C(=O)N1CCC[C@H](N1)C(=O)OCC(C)(C)C2 (atropisomer, axis not shown) [Example A350] : reported IC50 = ?
Ans: 100 to 1000 nM

Q: Entry CCn1c(-c2cccnc2[C@H](C)OC)c2c3cc(ccc31)-c1cccc(c1)C[C@H](NC(=O)[C@H](C(C)C)N1CC[C@]3(CCN(C(=O)C#C[C@]4(N(C)C)CCOC4)C3)C1=O)C(=O)N1CCC[C@H](N1)C(=O)OCC(C)(C)C2 [Example A559] : reported IC50 = ?
Ans: 1000 to 10000 nM

* * *

Target: NRAS Q61R (Homo sapiens, UniProt P01111+P62937, Q61R)
Sequence (P01111 whole entry Q61R, one chain of several): as the sequence (P01111 whole entry G12C, one chain of several) above, with C12G, Q61R counted along it
Experiment: Disruption of BRAF RBD interaction with Ras (FRET / MOA assay, with Cyclophilin A)
Format: biochemical
Settings: NRAS Q61R; read-out: NRAS Q61R FRET data IC50
Source text: Disruption of B-Raf Ras-Binding Domain (BRAF^RBD) Interaction with K-Ras by Compounds of the Invention (Also Called a FRET Assay or an MOA Assay) Note—The following protocol describes a procedure for monitoring disruption of K-Ras G12C (GMP-PNP) binding to BRAF^RBD by a compound of the invention. This protocol may also be executed substituting other Ras proteins or nucleotides. […]
Property: IC50; scope: individual compounds

// solved cases for IC50 follow
>  <compound>
C=CC(=O)N1CC[C@@H](N(C)C(=O)N(C)[C@H](C(=O)N[C@H]2Cc3nc(cs3)-c3ccc4c(c3)c(c(-c3cccnc3[C@H](C)OC)n4CC)CC(C)(C)COC(=O)[C@@H]3CCCN(N3)C2=O)C(C)C)C1 [Example A349]

>  <assay.system>
NRAS Q61R (Homo sapiens, UniProt P01111+P62937, Q61R)

>  <readout.name>
IC50

>  <recorded.result>
100 to 1000 nM

$$$$
>  <compound>
CCn1c(-c2cccnc2[C@H](C)OC)c2c3cc(ccc31)-c1csc(n1)C[C@H](NC(=O)[C@H](C(C)C)N(C)C(=O)N1[C@H](C)COC[C@H]1C)C(=O)N1CCC[C@H](N1)C(=O)OCC(C)(C)C2 (atropisomer, axis not shown) [Example A275]

>  <assay.system>
NRAS Q61R (Homo sapiens, UniProt P01111+P62937, Q61R)

>  <readout.name>
IC50

>  <recorded.result>
10 to 100 nM

$$$$
>  <compound>
CCn1c(-c2cccnc2[C@H](C)OC)c2c3cc(ccc31)-c1csc(n1)C[C@H](NC(=O)[C@H](C(C)C)N(C)C(=O)N1CCN(C(=O)[C@H]3CCCN3C)CC1)C(=O)N1CCC[C@H](N1)C(=O)OCC(C)(C)C2 (atropisomer, axis not shown) [Example A595]

>  <assay.system>
NRAS Q61R (Homo sapiens, UniProt P01111+P62937, Q61R)

>  <readout.name>
IC50

>  <recorded.result>
100 to 1000 nM

$$$$

From here, focus on the item given below.
Q: Entry CCn1c(-c2cc(N3CCN(C)CC3)cnc2[C@H](C)OC)c2c3cc(ccc31)-c1cc(O)cc(c1)C[C@H](NC(=O)[C@H](C(C)C)N(C)C(=O)[C@@H]1OCC[C@@H]1c1ccccc1)C(=O)N1CCC[C@H](N1)C(=O)OCC(C)(C)C2 (atropisomer, axis not shown) [Example A594] : reported IC50 = ?
Ans: < 10 nM

* * *

molecular target: KRAS G13C (Homo sapiens, UniProt P01116+P62937, G13C); assay: Ras-Raf disruption / FRET / MOA assay (BRAF RBD); type: biochemical; settings: KRAS G13C FRET data IC50, Ras-Raf disruption, with Cyclophilin A
Sequence (P01116 1-169 isoform P01116-2 G13C limits assumed, one chain of several): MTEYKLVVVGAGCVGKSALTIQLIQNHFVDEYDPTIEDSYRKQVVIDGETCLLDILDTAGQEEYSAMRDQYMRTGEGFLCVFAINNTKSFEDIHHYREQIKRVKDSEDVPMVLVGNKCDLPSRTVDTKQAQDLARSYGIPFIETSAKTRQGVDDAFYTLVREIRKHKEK
Property: IC50; scope: individual compounds

// solved cases for IC50 follow
>  <compound>
CCn1c(-c2cccnc2[C@H](C)OC)c2c3cc(ccc31)-c1cc(O)cc(c1)C[C@H](NC(=O)[C@H](C(C)C)N1CC[C@@H](NC(=O)[C@H]3CN3)C1=O)C(=O)N1CCC[C@H](N1)C(=O)OCC(C)(C)C2

>  <IC50>
10 to 100 nM

$$$$
>  <compound>
CCn1c(-c2cccnc2[C@H](C)OC)c2c3cc(ccc31)-c1cc(O)cc(c1)C[C@H](NC(=O)[C@H](C(C)C)N(C)C(=O)[C@H]1CCN1C(=O)[C@@H]1CN1)C(=O)N1CCC[C@H](N1)C(=O)OCC(C)(C)C2

>  <IC50>
10 to 100 nM

$$$$
>  <compound>
CCn1c(-c2cccnc2[C@H](C)OC)c2c3cc(ccc31)-c1cc(O)cc(c1)C[C@H](NC(=O)[C@H](C(C)C)N(C)C(=O)[C@H]1CCCN1C(=O)[C@@H]1CN1)C(=O)N1CCC[C@H](N1)C(=O)OCC(C)(C)C2

>  <IC50>
100 to 1000 nM

$$$$
>  <compound>
CCn1c(-c2cccnc2[C@H](C)OC)c2c3cc(ccc31)-c1cc(O)cc(c1)C[C@H](NC(=O)[C@H](C1CCCC1)N(C)C(=O)CN(C)C(=O)[C@@H]1N[C@@H]1C1(F)CC1)C(=O)N1CCC[C@H](N1)C(=O)OCC(C)(C)C2

>  <IC50>
10 to 100 nM

$$$$

Q: What reported IC50 corresponds to CCn1c(-c2cccnc2[C@H](C)OC)c2c3cc(ccc31)-c1cc(O)cc(c1)C[C@H](NC(=O)[C@H](C(C)C)N(C)C(=O)CN(C)C(=O)[C@H]1CN1CCCOC(C)=O)C(=O)N1CCC[C@H](N1)C(=O)OCC(C)(C)C2 (stereo partly shown) on KRAS G13C (Homo sapiens, UniProt P01116+P62937, G13C)?
Ans: 10 to 100 nM

Q: What reported IC50 corresponds to CCn1c(-c2cccnc2[C@H](C)OC)c2c3cc(ccc31)-c1cc(O)cc(c1)C[C@H](NC(=O)[C@H](C(C)C)N(C)C(=O)CNC(=O)[C@@H]1N[C@@H]1C1CC1)C(=O)N1CCC[C@H](N1)C(=O)OCC(C)(C)C2 on KRAS G13C (Homo sapiens, UniProt P01116+P62937, G13C)?
Ans: 10 to 100 nM

Q: What reported IC50 corresponds to CCn1c(-c2cccnc2[C@H](C)OC)c2c3cc(ccc31)-c1cc(O)cc(c1)C[C@H](NC(=O)[C@H](C(C)C)N(C)C(=O)CN(C)C(=O)[C@H]1N[C@H]1C1COC1)C(=O)N1CCC[C@H](N1)C(=O)OCC(C)(C)C2 on KRAS G13C (Homo sapiens, UniProt P01116+P62937, G13C)?
Ans: < 10 nM

Q: What reported IC50 corresponds to CCn1c(-c2cccnc2[C@H](C)OC)c2c3cc(ccc31)-c1cc(O)cc(c1)C[C@H](NC(=O)[C@H](C(C)C)N(C)C(=O)CN(C)C(=O)[C@@H]1N[C@H]1C(F)(F)F)C(=O)N1CCC[C@H](N1)C(=O)OCC(C)(C)C2 on KRAS G13C (Homo sapiens, UniProt P01116+P62937, G13C)?
Ans: < 10 nM

Q: What reported IC50 corresponds to CCn1c(-c2cccnc2[C@H](C)OC)c2c3cc(ccc31)-c1cc(O)cc(c1)C[C@H](NC(=O)[C@H](C(C)C)N(C)C(=O)CN(C)C(=O)[C@H]1N[C@H]1C(F)(F)F)C(=O)N1CCC[C@H](N1)C(=O)OCC(C)(C)C2 on KRAS G13C (Homo sapiens, UniProt P01116+P62937, G13C)?
Ans: 10 to 100 nM

Q: What reported IC50 corresponds to CCn1c(-c2cccnc2[C@H](C)OC)c2c3cc(ccc31)-c1cc(O)cc(c1)C[C@H](NC(=O)[C@H](C(C)C)N(C)C(=O)[C@H]1CC[C@@H](C)N1C(=O)[C@@H]1CN1)C(=O)N1CCC[C@H](N1)C(=O)OCC(C)(C)C2 on KRAS G13C (Homo sapiens, UniProt P01116+P62937, G13C)?
Ans: 100 to 1000 nM

Q: What reported IC50 corresponds to CCn1c(-c2cccnc2[C@H](C)OC)c2c3cc(ccc31)-c1cc(O)cc(c1)C[C@H](NC(=O)[C@H](C1CCCC1)N(C)C(=O)CN(C)C(=O)[C@H]1CN1)C(=O)N1CCC[C@H](N1)C(=O)OCC(C)(C)C2 on KRAS G13C (Homo sapiens, UniProt P01116+P62937, G13C)?
Ans: 10 to 100 nM

Q: What reported IC50 corresponds to CCn1c(-c2cccnc2[C@H](C)OC)c2c3cc(ccc31)-c1cc(O)cc(c1)C[C@H](NC(=O)[C@H](C1CCCC1)N(C)C(=O)[C@@H](C)N(C)C(=O)[C@@H]1N[C@@H]1C1CC1)C(=O)N1CCC[C@H](N1)C(=O)OCC(C)(C)C2 on KRAS G13C (Homo sapiens, UniProt P01116+P62937, G13C)?
Ans: 1000 to 10000 nM
